Data provenance is paper PMC4118376.

Entries annotated with measured kon
- target_or_test_system: staphylococcal enterotoxin B (Staphylococcus aureus (strain not …, UniProt P01552))
- Sequence (P01552 28-266): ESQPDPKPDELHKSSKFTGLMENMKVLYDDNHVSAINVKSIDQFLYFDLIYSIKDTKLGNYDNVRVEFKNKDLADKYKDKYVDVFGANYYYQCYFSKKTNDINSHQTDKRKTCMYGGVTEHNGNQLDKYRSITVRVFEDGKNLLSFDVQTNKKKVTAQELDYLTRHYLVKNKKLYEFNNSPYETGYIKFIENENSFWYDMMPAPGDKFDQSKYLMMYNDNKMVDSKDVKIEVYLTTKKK
- test_details: SPR
- test_conditions: both partners purified

binder | kon (M⁻¹ s⁻¹)
sdAb D9 (VHH, source: E. coli Rosetta (DE3), periplasm, purified (IMAC, size exclusion chromatography)) VHH: EVQLQASGGGLAQAGDSLRLSCAASIRTFGSYAMGWFRQAPGKEREFVAAISWSGGDTYADSAKGRFTISRDNAKNMMYLQMNSLAPEDTAVYFCAIVEAKYYISKDARDYGYWGQGTQVFVSS | 2.49e+06
sdAb A10 (VHH, source: E. coli Rosetta (DE3), periplasm, purified (IMAC, size exclusion chromatography)) VHH: EVQLQASGGGLVRAGGTLRLTCDATTPTFGSYAMGWFRQAPGKEREFVSAISWSGGDTYADSVKGRFTISRDNTRNRVYLQMNDLEPDDTAIYTCARTTARYYISKDAKDYDYWGQGTQVTVSS | 1.76e+06
sdAb E2 (VHH, source: E. coli Rosetta (DE3), periplasm, purified (IMAC, size exclusion chromatography)) VHH: EVQLQASGGGLVQAGGSLRLTCAASGRTFGSYAMGWFRQAPGKEREFVAAISWSGGDTYADSVKGRFTISRDNAKNTVYLQMNSLAPEDTAVYSCAAVGARYYISKDAKDYGYWGQGTQVTVSS | 1.28e+07
sdAb H9 (VHH, source: E. coli Rosetta (DE3), periplasm, purified (IMAC, size exclusion chromatography)) VHH: EVQLQASGGGLVQAGGSLRLTCAVSGPTFGSYALGWFRQAPGKEREFVAAVSWSGGDTYADSVKGRFIISRDNAKNTVYLQMNNLEPEDTAVYSCARMQDRYYISKDAKDYGYWGQETQVTVSS | 3.53e+06
sdAb B12 (VHH, source: E. coli Rosetta (DE3), periplasm, purified (IMAC, size exclusion chromatography)) VHH: EVQLQASGGGLVQAGGPLRLTCAVSGPTFGSYALGWFRQAPGKEREFVAAVSWSGGDTYADSVKGRFIISRDNAKNTVYLQMNNLEPEDTAVYSCARMQDRYYISKDAKDYGYWGQGTQVTVSS | 1.39e+06
sdAb H9-B11 (VHH, source: E. coli, periplasm, purified (IMAC, size exclusion chromatography)) VHH: DVQLQASGGGLVQVGGSLRLSCAASGSTFRIGYMGWYRQAPGKPRELVARISSGGTTDYLDFVKDRFTISRDNAKNTVYLQMSSLKPEDTAVYYCNVVNYRANEYWGQGTQVTVSS | 154000
sdAb B1 (VHH, source: E. coli Rosetta (DE3), periplasm, purified (IMAC, size exclusion chromatography)) VHH: EVQLQASGGGLVQAGGSLRLTCAVSGPTFGSYALGWFRQAPGKEREFVAAVSWSGGDTYADTAKGRFIISRDNAKNTVYLQMNNLEPEDTAVYSCARMQDRYYISKDAKDYGYWGQGTQVIVSS | 1.95e+06
sdAb H9-A1 (VHH, source: E. coli Rosetta (DE3), periplasm, purified (IMAC, size exclusion chromatography)) VHH: EVQLQASGGGLVQPGGSLRLSCAASGSAVSIGFMAWYRQAPGKQRELVARISSSGLPDYADTVKGRFTISRDNTRKTVSLQMNSLNPDDTAVYYCNARLYDGSSAWGQGTQVTVSS | 1.8e+06
